FYI, the data here is from patent US20250320312A1.

- Target System: PC-BSA
- Sequence (P02769 25-607 limits assumed, form in doubt): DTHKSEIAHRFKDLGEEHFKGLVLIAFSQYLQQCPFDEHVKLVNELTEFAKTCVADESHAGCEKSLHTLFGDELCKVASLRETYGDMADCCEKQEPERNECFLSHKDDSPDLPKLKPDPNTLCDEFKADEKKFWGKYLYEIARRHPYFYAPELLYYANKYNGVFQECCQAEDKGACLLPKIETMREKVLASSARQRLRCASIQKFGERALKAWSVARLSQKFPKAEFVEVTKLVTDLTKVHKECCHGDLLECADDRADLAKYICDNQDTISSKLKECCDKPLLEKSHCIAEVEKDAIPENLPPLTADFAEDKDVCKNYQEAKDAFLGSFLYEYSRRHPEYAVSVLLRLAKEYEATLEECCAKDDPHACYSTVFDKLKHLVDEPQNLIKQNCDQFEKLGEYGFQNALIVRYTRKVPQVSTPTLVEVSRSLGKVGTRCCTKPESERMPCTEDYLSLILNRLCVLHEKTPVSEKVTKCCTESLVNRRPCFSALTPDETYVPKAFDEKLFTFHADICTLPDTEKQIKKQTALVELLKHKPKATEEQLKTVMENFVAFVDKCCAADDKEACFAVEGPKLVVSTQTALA
- Test Method Notes: ELISA (DELFIA TRF), PC-BSA coated, titrated IgG1
Observation Type: pEC50
For clarity, pEC50 is expressed as the negative log10 of concentration in mol/L.

Binder	pEC50
PcOxP_DB01_G09 (human IgG1) (antibody, V domains shown) VH: EVQLLESGGGLVQPGGSLRLSCAASGFTFSDYYMEWVRQAPGKGLEWVAASRNKANTYTTEYADSVKGRFTISRDNSKNTLYLQMNSLRAEDTAVYYCARDYYGSSYWYFDVWGQGTLVTVSS VL: DIQMTQSPSSLSASVGDRVTITCTASESLYSSKHKVHYLAWYQQKPGKAPKLLIYGASNLYSGVPSRFSGSGSGTDFTLTISSLQPEDFATYYCAQFYSYPLTFGGGTKVEIK	9.51

Problem: Returns the measured pEC50 for the input binder. Input: PcOxP_DB01_G10 (human IgG1) (antibody, V domains shown) VH: EVQLLESGGGLVQPGGSLRLSCAASGFTFSDFYMEWVRQAPGKGLEWVAASRNKNNDYTTEYADSVKGRFTISRDNSKNTLYLQMNSLRAEDTAVYYCARDYYGSSYWYFDVWGQGTLVTVSS VL: DIVMTQSPDSLAVSLGERATINCKASQSLYSSKHKKHYLAWYQQKPGQPPKLLIYGASNRYPGVPDRFSGSGSGTDFTLTISSLQAEDVAVYYCAQFYRYPLTFGGGTKVEIK
Solution: 9.39

Problem: Record request: pEC50 value, item PcOxP_DB04_G01 (human IgG1) (antibody, V domains shown) VH: EVQLLESGGGLVQPGGSLRLSCAASGFTFSDYYMEWVRQAPGKGLEWVAASRNKWNDYTTEYADSVKGRFTISRDNSKNTLYLQMNSLRAEDTAVYYCARDYYLSSYWYFDVWGQGTLVTVSS VL: DIVMTQSPDSLAVSLGERATINCKASQSVLSSKNNVNYLAWYQQKPGQPPKLLIYGASNRYIGVPDRFSGSGSGTDFTLTISSLQAEDVAVYYCAQFYQYPLTFGGGTKVEIK
Solution: 9.59

Problem: For the binder PcOxP_DB02_C01 (human IgG1) (antibody, V domains shown) VH: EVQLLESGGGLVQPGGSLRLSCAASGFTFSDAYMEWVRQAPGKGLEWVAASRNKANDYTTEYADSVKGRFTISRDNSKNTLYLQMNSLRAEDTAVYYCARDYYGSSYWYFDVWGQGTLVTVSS VL: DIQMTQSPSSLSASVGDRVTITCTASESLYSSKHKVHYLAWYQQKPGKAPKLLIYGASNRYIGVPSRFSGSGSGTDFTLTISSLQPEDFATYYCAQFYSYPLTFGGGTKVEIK , what pEC50 is on record?
Solution: 9.19

Problem: Which value of pEC50 has been reported for PcOxP_DB01_D11 (human IgG1) (antibody, V domains shown) VH: EVQLLESGGGLVQPGGSLRLSCAASGFTFSSYYMEWVRQAPGKGLEWVAASRNKANDYTTEYADSVKGRFTISRDNSKNTLYLQMNSLRAEDTAVYYCARDYYGSSYWYNDVWGQGTLVTVSS VL: DIVMTQSPDSLAVSLGERATINCTASESLYSSKWKVHYLAWYQQKPGQPPKLLIYGASNRYIGVPDRFSGSGSGTDFTLTISSLQAEDVAVYYCAQFYSYPLTFGGGTKVEIK in the records?
Solution: 9.62
